Sourced from patent US5216005A

# method description: viability of peripheral blood lymphocytes with or without PHA, trypan blue exclusion
# Format: cell-based, human
# particulars: human, peripheral blood lymphocytes, first individual; (-) PHA; 20 mM
Field: viability at 20000 µM. Provide a value for each of the compounds that follow.
One number for each entry, in %.

COC(=O)CCC(=O)CC(C)=O [Succinylacetone Methyl Ester, methyl 4-6-dioxoheptanoate] | 0

Now for the compound whose viability at 20000 µM we want.
Query (compound): COC(=O)CCC(C(C)=O)C(C)=O [Methyl 4-Acetyl-5-Oxohexanoate, methyl 4-acetyl-5-oxohexanoate] ; field requested: viability at 20000 µM 100

---

# method description: viability of peripheral blood lymphocytes with or without PHA, trypan blue exclusion
# Type: cell-based, human
# particulars: human, peripheral blood lymphocytes, second individual; (-) PHA; 81 μM
result type: viability at 81 µM

COC(=O)CCC(=O)CC(C)=O [Succinylacetone Methyl Ester, methyl 4-6-dioxoheptanoate] | 100%

Query (compound): COC(=O)CCC(C(C)=O)C(C)=O [Methyl 4-Acetyl-5-Oxohexanoate, methyl 4-acetyl-5-oxohexanoate] ; field requested: viability at 81 µM 100%

---

# method description: viability of peripheral blood lymphocytes with or without PHA, trypan blue exclusion
# Format: cell-based, human
# particulars: human, peripheral blood lymphocytes, first individual; (+) PHA; 244 μM
# Description: Viability was determined using the trypan blue exclusion method well known in the art. […] The assays were conducted in duplicate wherein peripheral blood lymphocytes were isolated from two separate individuals, and then treated with or without phytohemagglutinin in the presence of various concentrations of the appropriate succinylacetone derivative.
result type: viability at 244 µM (%)
Numbers only, in %.

COC(=O)CCC(=O)CC(C)=O [Succinylacetone Methyl Ester, methyl 4-6-dioxoheptanoate] | 97

Now for the compound whose viability at 244 µM we want.
Query (compound): COC(=O)CCC(C(C)=O)C(C)=O [Methyl 4-Acetyl-5-Oxohexanoate, methyl 4-acetyl-5-oxohexanoate] ; field requested: viability at 244 µM 100

---

# method description: viability of peripheral blood lymphocytes with or without PHA, trypan blue exclusion
# Assay type: cell-based, human
# particulars: human, peripheral blood lymphocytes, first individual; (+) PHA; 2.2 mM
result type: viability at 2200 µM (%)
Answers are plain numbers, in %.

COC(=O)CCC(=O)CC(C)=O [Succinylacetone Methyl Ester, methyl 4-6-dioxoheptanoate] | 89

Now for the compound whose viability at 2200 µM we want.
Query (compound): COC(=O)CCC(C(C)=O)C(C)=O [Methyl 4-Acetyl-5-Oxohexanoate, methyl 4-acetyl-5-oxohexanoate] ; field requested: viability at 2200 µM 100

---

# method description: viability of peripheral blood lymphocytes with or without PHA, trypan blue exclusion
# Format: cell-based, human
# particulars: human, peripheral blood lymphocytes, second individual; (-) PHA; 6.7 mM
# Procedure: Viability was determined using the trypan blue exclusion method well known in the art. […] The assays were conducted in duplicate wherein peripheral blood lymphocytes were isolated from two separate individuals, and then treated with or without phytohemagglutinin in the presence of various concentrations of the appropriate succinylacetone derivative.
Field: viability at 6700 µM. Provide a value for each of the compounds that follow.
One number for each entry, in %.

COC(=O)CCC(C(C)=O)C(C)=O [Methyl 4-Acetyl-5-Oxohexanoate, methyl 4-acetyl-5-oxohexanoate] | 100

Now for the compound whose viability at 6700 µM we want.
Query (compound): COC(=O)CCC(=O)CC(C)=O [Succinylacetone Methyl Ester, methyl 4-6-dioxoheptanoate] ; field requested: viability at 6700 µM 4

---

# method description: viability of peripheral blood lymphocytes with or without PHA, trypan blue exclusion
# Assay type: cell-based, human
# particulars: human, peripheral blood lymphocytes, first individual; (+) PHA; 6.7 mM
result type: viability at 6700 µM (%)
One number for each entry, in %.

COC(=O)CCC(C(C)=O)C(C)=O [Methyl 4-Acetyl-5-Oxohexanoate, methyl 4-acetyl-5-oxohexanoate] | 100

Query (compound): COC(=O)CCC(=O)CC(C)=O [Succinylacetone Methyl Ester, methyl 4-6-dioxoheptanoate] ; field requested: viability at 6700 µM 8

---

Field: viability at 6700 µM. Provide a value for each of the compounds that follow.
# method description: viability of peripheral blood lymphocytes with or without PHA, trypan blue exclusion
# Format: cell-based, human
# particulars: human, peripheral blood lymphocytes, first individual; (-) PHA; 6.7 mM
# Description: Viability was determined using the trypan blue exclusion method well known in the art. […] The assays were conducted in duplicate wherein peripheral blood lymphocytes were isolated from two separate individuals, and then treated with or without phytohemagglutinin in the presence of various concentrations of the appropriate succinylacetone derivative.
Give bare numbers, in %.

Give viability at 6700 µM for each of the items listed below.
1. COC(=O)CCC(=O)CC(C)=O [Succinylacetone Methyl Ester, methyl 4-6-dioxoheptanoate]
2. COC(=O)CCC(C(C)=O)C(C)=O [Methyl 4-Acetyl-5-Oxohexanoate, methyl 4-acetyl-5-oxohexanoate]

1. 7
2. 100

---

# method description: viability of peripheral blood lymphocytes with or without PHA, trypan blue exclusion
# Format: cell-based, human
# particulars: human, peripheral blood lymphocytes, second individual; (+) PHA; 733 μM
# Protocol: Viability was determined using the trypan blue exclusion method well known in the art. […] The assays were conducted in duplicate wherein peripheral blood lymphocytes were isolated from two separate individuals, and then treated with or without phytohemagglutinin in the presence of various concentrations of the appropriate succinylacetone derivative.
result type: viability at 733 µM (%)
Give bare numbers, in %.

COC(=O)CCC(C(C)=O)C(C)=O [Methyl 4-Acetyl-5-Oxohexanoate, methyl 4-acetyl-5-oxohexanoate] | 100

Now for the compound whose viability at 733 µM we want.
Query (compound): COC(=O)CCC(=O)CC(C)=O [Succinylacetone Methyl Ester, methyl 4-6-dioxoheptanoate] ; field requested: viability at 733 µM 94

---

# method description: viability of peripheral blood lymphocytes with or without PHA, trypan blue exclusion
# Format: cell-based, human
# particulars: human, peripheral blood lymphocytes, second individual; (-) PHA; 2.2 mM
Field: viability at 2200 µM. Provide a value for each of the compounds that follow.
Give bare numbers, in %.

Give viability at 2200 µM for each of the items listed below.
1. COC(=O)CCC(=O)CC(C)=O [Succinylacetone Methyl Ester, methyl 4-6-dioxoheptanoate]
2. COC(=O)CCC(C(C)=O)C(C)=O [Methyl 4-Acetyl-5-Oxohexanoate, methyl 4-acetyl-5-oxohexanoate]

1: 94; 2: 100

---

Field: viability at 20000 µM. Provide a value for each of the compounds that follow.
# method description: viability of peripheral blood lymphocytes with or without PHA, trypan blue exclusion
# Format: cell-based, human
# particulars: human, peripheral blood lymphocytes, first individual; (+) PHA; 20 mM
One number for each entry, in %.

COC(=O)CCC(=O)CC(C)=O [Succinylacetone Methyl Ester, methyl 4-6-dioxoheptanoate] | 0

Query (compound): COC(=O)CCC(C(C)=O)C(C)=O [Methyl 4-Acetyl-5-Oxohexanoate, methyl 4-acetyl-5-oxohexanoate] ; field requested: viability at 20000 µM 100

---

# method description: viability of peripheral blood lymphocytes with or without PHA, trypan blue exclusion
# Type: cell-based, human
# particulars: human, peripheral blood lymphocytes, second individual; (+) PHA; 9 μM
result type: viability at 9 µM (%)
One number for each entry, in %.

COC(=O)CCC(C(C)=O)C(C)=O [Methyl 4-Acetyl-5-Oxohexanoate, methyl 4-acetyl-5-oxohexanoate] | 100

Now for the compound whose viability at 9 µM we want.
Query (compound): COC(=O)CCC(=O)CC(C)=O [Succinylacetone Methyl Ester, methyl 4-6-dioxoheptanoate] ; field requested: viability at 9 µM 100

---

# method description: viability of peripheral blood lymphocytes with or without PHA, trypan blue exclusion
# Assay type: cell-based, human
# particulars: human, peripheral blood lymphocytes, first individual; (-) PHA; 244 μM
result type: viability at 244 µM (%)
Answers are plain numbers, in %.

COC(=O)CCC(C(C)=O)C(C)=O [Methyl 4-Acetyl-5-Oxohexanoate, methyl 4-acetyl-5-oxohexanoate] | 100

Now for the compound whose viability at 244 µM we want.
Query (compound): COC(=O)CCC(=O)CC(C)=O [Succinylacetone Methyl Ester, methyl 4-6-dioxoheptanoate] ; field requested: viability at 244 µM 100

---

# method description: viability of peripheral blood lymphocytes with or without PHA, trypan blue exclusion
# Assay type: cell-based, human
# particulars: human, peripheral blood lymphocytes, first individual; (-) PHA; 9 μM
Field: viability at 9 µM. Provide a value for each of the compounds that follow.
One number for each entry, in %.

Give viability at 9 µM for each of the items listed below.
1. COC(=O)CCC(=O)CC(C)=O [Succinylacetone Methyl Ester, methyl 4-6-dioxoheptanoate]
2. COC(=O)CCC(C(C)=O)C(C)=O [Methyl 4-Acetyl-5-Oxohexanoate, methyl 4-acetyl-5-oxohexanoate]

100
100

---

Field: viability at 733 µM. Provide a value for each of the compounds that follow.
# method description: viability of peripheral blood lymphocytes with or without PHA, trypan blue exclusion
# Format: cell-based, human
# particulars: human, peripheral blood lymphocytes, first individual; (-) PHA; 733 μM
Don't forget the unit after the number, please.

COC(=O)CCC(C(C)=O)C(C)=O [Methyl 4-Acetyl-5-Oxohexanoate, methyl 4-acetyl-5-oxohexanoate] | 100%

Now for the compound whose viability at 733 µM we want.
Query (compound): COC(=O)CCC(=O)CC(C)=O [Succinylacetone Methyl Ester, methyl 4-6-dioxoheptanoate] ; field requested: viability at 733 µM 96%
